Values compiled from patent US20110165161A1.

For each record, write down the corresponding relative binding activity (% of WT).
Target: T1, EGFI-Cr1 E26D (human, UniProt P16422 24-63)
T1 construct: not shown: The fused constant region of human immunoglobulin gamma 1 heavy chain (Cr1)
T1 chain: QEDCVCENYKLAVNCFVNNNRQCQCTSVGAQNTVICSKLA
Assay: direct ELISA, coated EGFI-Cr1 fusion, 0.1 µg/ml antibody
Give the value in % but do not write % after it.

Ask | Give relative binding activity (% of WT) for murine monoclonal antibody 2D11 (antibody, mouse IgG1, V domains shown, Mouse IgG1, kappa, from hybridoma; also called m322-2D11.19) VH: QIQLVQSGPELKKPGETVKISCKASGYTFTNYGMNWVKQAPGKGLKWMGWINTNTGEATYVEEFKGRVVFSLETSASTAYLQINNLKNEDTATYFCARIGYVWYFDVWGAGTTVTVSS VL: DIVMSQSPSSLAVSAGEKVTMSCKSSQSLFSSRTRKNYLAWYQQKPGQSPKLLIYWASTRESGVPDRFTGSGSGTDFTLTINSVQAEDLAVYYCKHSNNLFTFGSGTKLEIKR
Reply | 97

Ask | Provide relative binding activity (% of WT) value for the following binder: murine monoclonal antibody 1F10 (antibody, mouse IgG1, V domains shown, Mouse IgG1, lambda 1, from hybridoma; also called m338-1F10.3) VH: EVKLLESGGGLVQPGGSLKLSCAASGFDFSRYWMSWVRQAPGKGLEWIGEINPDSSTMNYTPSLKDKFIISRDNAKNTLYLQMSKVRSEDTALYYCARGAYAMDYWGQGTSVTVSS VL: QAVVTQESALTTSPGETVTLTCRSSTGAVTTSNNANWVQEKPDHLFTGLIGATNNRAPGVPARFSGSLIGDKAALTITGAQTEDEAIYFCALWYINHWVFGGGTKLTVLG
Reply | 98

Ask | Specify reported relative binding activity (% of WT) for the binder shown: murine monoclonal antibody 6D11 (antibody, mouse IgG1, V domains shown, Mouse IgG1, kappa, from hybridoma; also called m338-6D11.8) VH: EVQLVESGGDLVKPGGSLKLSCAASGFAFDSYGMSWIRQTPGTRLEWVATISSGGYYTYYEDNVKGRFIISRDNAKNTLDLQMSGLKSEDAATYYCARRGNYDVDYYAMDYWGQGTSVIVSS VL: DVVLTQIPLSLPVSLGDQASISCRSSQSLEHSNGNTYLHWYLQKPGQSPKLLIYKVSNRFSGVPDRFSGSGSGTDFTLKISRVEAEDLGVYFCSQSTHVPPWTFGGGTKLEFKR
Reply | 57
